assay: Solubility of polymorph A at room temperature (measurements taken at equilibrium); assay type: physicochemical; details: organic solvent or mixture, thermodynamic from solid, Ethanol
READOUT_NAME: solubility (mg/mL)
Numeric only. Scale: mg/mL

Reported solubility of Cc1cccc(-c2ccc3c(c2)c(C(=O)C(=O)O)cn3Cc2ccc(C(C)(C)C)cc2)c1 : 12.2

###

experiment: Solubility of polymorph A at room temperature (measurements taken at equilibrium); assay type: physicochemical; settings: thermodynamic from solid, Deionized Water
READOUT_NAME: solubility (µg/mL)
Express your answer in µg/mL, writing the number without its unit.

Record Cc1cccc(-c2ccc3c(c2)c(C(=O)C(=O)O)cn3Cc2ccc(C(C)(C)C)cc2)c1 . Reported solubility: 24

###

experiment: Solubility of polymorph A at room temperature (measurements taken at equilibrium); assay type: physicochemical; conditions: organic solvent or mixture, thermodynamic from solid, DMSO
READOUT_NAME: solubility

// Cc1cccc(-c2ccc3c(c2)c(C(=O)C(=O)O)cn3Cc2ccc(C(C)(C)C)cc2)c1 [Polymorph A] : solubility value = > 500 mg/mL

###

test: Solubility of polymorph A at room temperature (measurements taken at equilibrium); assay type: physicochemical; details: organic solvent or mixture, thermodynamic from solid, Propylene Carbonate
READOUT_NAME: solubility (mg/mL)
Numbers only; they are read as mg/mL.

// field: solubility; key: Cc1cccc(-c2ccc3c(c2)c(C(=O)C(=O)O)cn3Cc2ccc(C(C)(C)C)cc2)c1 ; value = 103

###

experiment: Solubility of polymorph A at room temperature (measurements taken at equilibrium); format: physicochemical; conditions: organic solvent or mixture, thermodynamic from solid, Propylene Glycol
READOUT_NAME: solubility (µg/mL)
Please give a number only; it is taken to be in µg/mL.

Item: Cc1cccc(-c2ccc3c(c2)c(C(=O)C(=O)O)cn3Cc2ccc(C(C)(C)C)cc2)c1 | solubility: 7100

###

test: Solubility of polymorph A at room temperature (measurements taken at equilibrium); format: physicochemical; conditions: organic solvent or mixture, thermodynamic from solid, Acetone
READOUT_NAME: solubility (mg/mL)
Form entry: value (mg/mL) — number only.

# solubility (compound: Cc1cccc(-c2ccc3c(c2)c(C(=O)C(=O)O)cn3Cc2ccc(C(C)(C)C)cc2)c1 ) is 277

These entries and their values trace back to patent US20080188542A1.
